# STUDY TARGET: Aβ40 (Homo sapiens, UniProt P05067)
# Sequence (P05067 672-711, species assumed): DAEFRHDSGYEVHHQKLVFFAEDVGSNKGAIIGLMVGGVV
# ASSAY COMMENT: ThT Aβ aggregation assay (kinetic Thioflavin T fluorescence)
# Type: biochemical
# TEST PARAMETERS: compound 10 μM; 20 μM Aβ; DMSO control at 80 hr = 0% inhibition; number in parenthesis = compound ID 1027 in that experiment; read-out: % inhib Thioflavin T Aβ 40 10 μM
EXPERIMENTAL ENDPOINT: inhibition at 10 µM (%)

[1] OC(c1ccccc1-c1cc(N2CCC(N3CCCC3)CC2)c2nonc2c1)C(F)(F)F (centres unmarked)
[2] Cc1ccc(-c2cc(N3CC(CN4CCCC4)C3)c3nonc3c2)cc1Cl
[3] OC(c1ccc(-c2cc(N3CC(CN4CCCC4)C3)c3nonc3c2)s1)C(F)(F)F (centres unmarked)
[Q] # ascending order, key=inhibition at 10 µM Form entry: labels listed in requested order.
[A] 2, 1, 3
(2: 27%, 1: 43%, 3: 84%)

[P] OC(c1ccc(-c2cc(N3CCC(N4CCCC4)CC3)c3nonc3c2)s1)C(F)(F)F (centres unmarked)
[Q] CCN(CC)C(=O)c1cc(N2CC(CN3CCCC3)C2)c2nonc2c1
[R] CS(=O)(=O)c1ccccc1-c1cc(N2CC(CN3CCCC3)C2)c2nonc2c1
[Q] Output the entries ranked by inhibition at 10 µM from maximum down to minimum. Form entry: labels listed in requested order.
[A] Q, P, R
